Biological target: DLG1_1, Q12959
Experiment: holdup assay
Design: key: below the threshold = too weak to quantify, mostly under pKd 3.1 to 4
Conditions: plain residues with an end cap or a label only (N-terminal biotin on a linker: ahx)
measure.name: pKd

{"columns": ["binder", "measure.name", "reported.value"],
 "data": [
  ["QDEKVKESYV [ABCA1, O95477]", "pKd", 4.6],
  ["QNTDDVQTSF [ACE2, Q9BYF1]", "pKd", "below the threshold"],
  ["TQKFRASTAL [FRMPD1, Q5SYB0]", "pKd", "below the threshold"],
  ["APSRKLNTEI [TIAM1, Q13009]", "pKd", "below the threshold"]
]}

stdin: I have this binder here, TEAKLTETNA [MYO18A, Q92614] , and I need its recorded pKd.
stdout: below the threshold
